target: CYP2D6 (Homo sapiens); construct: was investigated in HLMs; tissue iPhase Pharmaceutical Services (Beijing, China) Lot # 7MMC011; host or cells: pooled human liver microsomes; experiment: Inhibition of CYP activities by GA in HLMs (dextromethorphan); assay type: biochemical; settings: human, human liver microsomes, probe dextromethorphan (10 µM); CYP2D6-30min; GA 6.25; vs control; read-out: Relative activity (%)
Sequence (P10635 whole entry): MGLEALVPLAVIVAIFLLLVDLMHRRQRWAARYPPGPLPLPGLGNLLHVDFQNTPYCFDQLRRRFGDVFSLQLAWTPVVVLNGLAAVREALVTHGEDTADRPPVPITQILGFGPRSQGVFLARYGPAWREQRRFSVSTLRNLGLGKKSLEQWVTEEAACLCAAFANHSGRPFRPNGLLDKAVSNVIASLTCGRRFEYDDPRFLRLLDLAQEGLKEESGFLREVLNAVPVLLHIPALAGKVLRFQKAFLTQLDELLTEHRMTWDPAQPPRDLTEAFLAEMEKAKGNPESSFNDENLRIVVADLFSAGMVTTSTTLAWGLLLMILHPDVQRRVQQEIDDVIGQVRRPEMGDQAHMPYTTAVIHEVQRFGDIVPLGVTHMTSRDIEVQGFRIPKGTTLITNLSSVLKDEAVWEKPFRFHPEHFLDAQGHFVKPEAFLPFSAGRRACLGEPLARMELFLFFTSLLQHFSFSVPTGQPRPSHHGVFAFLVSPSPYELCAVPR
Observable: activity at 30 min, 6.25 µM (%)
Number only, in %; omit the unit.

Inquiry: Name the reported activity at 30 min, 6.25 µM value associated with the molecule CC1(C)[C@@H](O)CC[C@]2(C)[C@H]3C(=O)C=C4[C@@H]5C[C@@](C)(C(=O)O)CC[C@]5(C)CC[C@@]4(C)[C@]3(C)CC[C@@H]12 [GA, Glycyrrhetinic acid]
Reply text: 96

---

Assay: HK-2 cell viability, MTT assay, with or without co-cultured HLMs
Format: cell-based, human
Settings: human, BAK 30 µM, with HLM, raw data; read-out: cell viability(%), single values
Experimental: HK-2 cells obtained from Peking Union Medical College were maintained in D/F12 medium containing 10% fetal bovine serum, 2 mM glutamine and 1 × 10^5 U/L penicillin and streptomycin at 37 °C in a 5% CO2 atmosphere. […] The samples containing HLMs were prepared in an ice bath, and three replicates were tested for each dose. […] Subsequently, 150 µL of 4% isopropanol was added to cells for 15 min at 37 °C, and the absorbance at 570 nm was then read by a microplate reader (Multiskan MK3, Thermo, USA). […]
Observable: viability at 4 h, 30 µM (%)
Number only, in %; omit the unit.

Inquiry: Name the reported viability at 4 h, 30 µM value associated with the molecule `C=C[C@@](C)(/C=C/c1ccc(O)cc1)CCC=C(C)C`
Reply text: 98.8

---

biological target: CYP3A4 (Homo sapiens); construct: was investigated in HLMs; tissue iPhase Pharmaceutical Services (Beijing, China) Lot # 7MMC011; host or cells: pooled human liver microsomes; assay: Inhibition of CYP activities by GA in HLMs (midazolam); assay type: biochemical; details: human, human liver microsomes, probe midazolam (10 µM); CYP3A4-30min; GA 1000.00; vs control; read-out: Relative activity (%)
Observable: activity at 30 min, 1000 µM (%)
Number only, in %; omit the unit.

Inquiry: Name the reported activity at 30 min, 1000 µM value associated with the molecule `CC1(C)[C@@H](O)CC[C@]2(C)[C@H]3C(=O)C=C4[C@@H]5C[C@@](C)(C(=O)O)CC[C@]5(C)CC[C@@]4(C)[C@]3(C)CC[C@@H]12`
Reply text: 0.298

---

target: CYP3A4 (Homo sapiens, UniProt P08684); construct: was investigated in HLMs; tissue iPhase Pharmaceutical Services (Beijing, China) Lot # 7MMC011; host or cells: pooled human liver microsomes; assay: Inhibition of CYP activities by GA in HLMs (midazolam); type: biochemical; conditions: human, human liver microsomes, probe midazolam (10 µM); read-out: Relative activity (%)
Sequence (P08684 whole entry): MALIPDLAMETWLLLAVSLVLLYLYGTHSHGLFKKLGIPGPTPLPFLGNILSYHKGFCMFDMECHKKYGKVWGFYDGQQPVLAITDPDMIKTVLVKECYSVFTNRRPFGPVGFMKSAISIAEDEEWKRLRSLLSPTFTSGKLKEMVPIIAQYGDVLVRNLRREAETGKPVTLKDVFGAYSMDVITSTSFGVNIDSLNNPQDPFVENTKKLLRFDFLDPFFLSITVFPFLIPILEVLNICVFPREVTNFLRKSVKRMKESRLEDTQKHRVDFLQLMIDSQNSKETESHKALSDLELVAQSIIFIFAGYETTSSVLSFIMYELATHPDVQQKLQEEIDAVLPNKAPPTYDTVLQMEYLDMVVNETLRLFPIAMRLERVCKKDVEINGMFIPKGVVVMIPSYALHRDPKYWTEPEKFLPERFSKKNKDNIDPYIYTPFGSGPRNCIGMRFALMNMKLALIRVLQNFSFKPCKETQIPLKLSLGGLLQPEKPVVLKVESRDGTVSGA
Observable: activity at 30 min, […] (%)
Number only, in %; omit the unit.

Inquiry: Name the reported activity at 30 min, […] value associated with the compound `CC1(C)[C@@H](O)CC[C@]2(C)[C@H]3C(=O)C=C4[C@@H]5C[C@@](C)(C(=O)O)CC[C@]5(C)CC[C@@]4(C)[C@]3(C)CC[C@@H]12`
Reply text: 3.63

---

target: CYP2C9 (Homo sapiens, UniProt P11712); construct: tissue iPhase Pharmaceutical Services (Beijing, China) Lot # 7MMC011; host or cells: pooled human liver microsomes; experiment: Inhibition of CYP activities by GA in HLMs (tolbutamide); format: biochemical; conditions: human, human liver microsomes, probe tolbutamide 25 µM; CYP2C9-30min; GA 100.0000; vs control; read-out: Relative activity (%)
Sequence (P11712 whole entry): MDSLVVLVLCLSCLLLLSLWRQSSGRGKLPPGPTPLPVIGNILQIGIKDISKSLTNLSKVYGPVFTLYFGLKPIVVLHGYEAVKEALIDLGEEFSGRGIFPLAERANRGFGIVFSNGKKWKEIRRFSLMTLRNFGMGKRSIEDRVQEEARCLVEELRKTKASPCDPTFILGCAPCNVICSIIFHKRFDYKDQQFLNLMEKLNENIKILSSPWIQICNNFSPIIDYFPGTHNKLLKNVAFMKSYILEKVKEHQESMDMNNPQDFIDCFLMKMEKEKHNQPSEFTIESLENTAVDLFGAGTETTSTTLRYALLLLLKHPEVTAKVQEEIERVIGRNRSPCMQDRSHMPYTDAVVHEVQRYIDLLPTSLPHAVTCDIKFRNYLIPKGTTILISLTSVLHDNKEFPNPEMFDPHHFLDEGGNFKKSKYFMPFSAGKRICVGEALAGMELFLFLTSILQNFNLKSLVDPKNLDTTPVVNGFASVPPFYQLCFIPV
Observable: activity at 30 min, 100 µM (%)
Number only, in %; omit the unit.

Inquiry: Observed activity at 30 min, 100 µM on CYP2C9 (Homo sapiens, UniProt P11712) for `CC1(C)[C@@H](O)CC[C@]2(C)[C@H]3C(=O)C=C4[C@@H]5C[C@@](C)(C(=O)O)CC[C@]5(C)CC[C@@]4(C)[C@]3(C)CC[C@@H]12` , please.
Reply text: 48.9

---

target: CYP1A2 (Homo sapiens, UniProt P05177); construct: tissue iPhase Pharmaceutical Services (Beijing, China) Lot # 7MMC011; host or cells: pooled human liver microsomes; assay: Inhibition of CYP activities by GA in HLMs (phenacetin); type: biochemical; conditions: HLMs, 30 min pre-incubation with NADPH, phenacetin 25 µM
Observable: IC50 (µM)
Number only, in µM; omit the unit.

Inquiry: Name the reported IC50 value associated with the molecule `CC1(C)[C@@H](O)CC[C@]2(C)[C@H]3C(=O)C=C4[C@@H]5C[C@@](C)(C(=O)O)CC[C@]5(C)CC[C@@]4(C)[C@]3(C)CC[C@@H]12`
Reply text: 61.1

---

Molecular target: CYP1A2 (Homo sapiens)
Construct: tissue iPhase Pharmaceutical Services (Beijing, China) Lot # 7MMC011; host or cells: pooled human liver microsomes
Sequence (P05177 1-516): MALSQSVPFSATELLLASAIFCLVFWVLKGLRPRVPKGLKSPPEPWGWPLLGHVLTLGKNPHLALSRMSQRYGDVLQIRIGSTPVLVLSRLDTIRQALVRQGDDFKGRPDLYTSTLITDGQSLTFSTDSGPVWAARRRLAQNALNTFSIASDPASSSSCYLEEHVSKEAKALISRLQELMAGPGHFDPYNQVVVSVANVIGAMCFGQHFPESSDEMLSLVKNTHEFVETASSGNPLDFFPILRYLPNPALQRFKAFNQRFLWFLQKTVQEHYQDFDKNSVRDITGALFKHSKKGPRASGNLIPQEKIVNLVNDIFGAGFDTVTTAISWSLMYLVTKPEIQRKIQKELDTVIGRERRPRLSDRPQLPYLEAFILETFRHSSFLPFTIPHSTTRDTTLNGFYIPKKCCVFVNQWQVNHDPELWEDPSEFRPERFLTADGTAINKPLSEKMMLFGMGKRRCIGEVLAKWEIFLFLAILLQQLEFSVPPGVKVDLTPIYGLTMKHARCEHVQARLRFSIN
Assay: Inhibition of CYP activities by GA in HLMs (phenacetin)
Format: biochemical
Settings: human, human liver microsomes, probe phenacetin (25 µM); CYP1A2-30min; GA 0.1000; vs control; read-out: Relative activity (%)
Observable: activity at 30 min, 0.1 µM (%)
Number only, in %; omit the unit.

Inquiry: Name the reported activity at 30 min, 0.1 µM value associated with the molecule `CC1(C)[C@@H](O)CC[C@]2(C)[C@H]3C(=O)C=C4[C@@H]5C[C@@](C)(C(=O)O)CC[C@]5(C)CC[C@@]4(C)[C@]3(C)CC[C@@H]12`
Reply text: 95

---

test: Toxicokinetics of BAK in rat plasma after a single oral dose; type: in vivo, Sprague–Dawley rats; settings: Sprague-Dawley, rat, plasma, po, 200 mg/kg, 0.500 h after single oral dose; read-out: BAK concentration in rat plasma, single rats 1-5
Observable: concentration at 0.5 h (ng/mL)
Number only, in ng/mL; omit the unit.

Inquiry: Name the reported concentration at 0.5 h value associated with the compound `C=C[C@@](C)(/C=C/c1ccc(O)cc1)CCC=C(C)C`
Reply text: 256

---

target: CYP2C9 (Homo sapiens); construct: tissue iPhase Pharmaceutical Services (Beijing, China) Lot # 7MMC011; host or cells: pooled human liver microsomes; assay: Inhibition of CYP activities by GA in HLMs (tolbutamide); format: biochemical; details: human, human liver microsomes, probe tolbutamide 25 µM; CYP2C9-30min; GA 6.2500; vs control; read-out: Relative activity (%)
Observable: activity at 30 min, 6.25 µM (%)
Number only, in %; omit the unit.

Inquiry: Observed activity at 30 min, 6.25 µM on CYP2C9 (Homo sapiens) for `CC1(C)[C@@H](O)CC[C@]2(C)[C@H]3C(=O)C=C4[C@@H]5C[C@@](C)(C(=O)O)CC[C@]5(C)CC[C@@]4(C)[C@]3(C)CC[C@@H]12` , please.
Reply text: 76.2

---

test: Toxicokinetics of BAK in rat plasma after a single oral dose; type: in vivo, Sprague–Dawley rats; details: Sprague-Dawley, rat, plasma, po, 200 mg/kg, 4.000 h after single oral dose; read-out: BAK concentration in rat plasma, mean
Observable: concentration at 4 h (ng/mL)
Number only, in ng/mL; omit the unit.

Inquiry: Name the reported concentration at 4 h value associated with the compound `C=C[C@@](C)(/C=C/c1ccc(O)cc1)CCC=C(C)C`
Reply text: 843

---

molecular target: CYP2C9 (Homo sapiens); construct: tissue iPhase Pharmaceutical Services (Beijing, China) Lot # 7MMC011; host or cells: pooled human liver microsomes; experiment: Inhibition of CYP activities by GA in HLMs (tolbutamide); type: biochemical; settings: human, human liver microsomes, probe tolbutamide (25 µM); CYP2C9-30min; GA 1000.0000; vs control; read-out: Relative activity (%)
Observable: activity at 30 min, 1000 µM

Inquiry: Name the reported activity at 30 min, 1000 µM value associated with the compound CC1(C)[C@@H](O)CC[C@]2(C)[C@H]3C(=O)C=C4[C@@H]5C[C@@](C)(C(=O)O)CC[C@]5(C)CC[C@@]4(C)[C@]3(C)CC[C@@H]12 [GA, Glycyrrhetinic acid]
Reply text: 14.9%
